The origin of these recorded values is paper PMC12816604.

Recorded pKd for the following binders
# target-of-assay: J2 IgG heavy chain (HC-TEV-His8);J2 IgG light chain (Mus musculus;Mus musculus, UniProt ; ;, |)
# Sequence (chain, as listed by the source |, chain 1 of 2): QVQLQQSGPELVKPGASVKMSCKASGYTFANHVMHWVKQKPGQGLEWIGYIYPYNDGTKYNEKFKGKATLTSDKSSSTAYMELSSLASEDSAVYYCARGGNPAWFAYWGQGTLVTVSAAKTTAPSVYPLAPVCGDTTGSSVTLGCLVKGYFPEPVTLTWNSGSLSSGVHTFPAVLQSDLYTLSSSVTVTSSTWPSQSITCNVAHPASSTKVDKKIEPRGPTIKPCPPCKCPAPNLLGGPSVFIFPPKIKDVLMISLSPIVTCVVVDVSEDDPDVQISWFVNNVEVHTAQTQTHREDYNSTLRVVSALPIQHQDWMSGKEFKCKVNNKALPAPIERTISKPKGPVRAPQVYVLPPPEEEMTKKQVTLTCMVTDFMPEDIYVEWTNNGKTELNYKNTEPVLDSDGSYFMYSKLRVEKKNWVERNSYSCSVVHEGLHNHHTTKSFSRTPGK
# Sequence (chain, as listed by the source |, chain 2 of 2): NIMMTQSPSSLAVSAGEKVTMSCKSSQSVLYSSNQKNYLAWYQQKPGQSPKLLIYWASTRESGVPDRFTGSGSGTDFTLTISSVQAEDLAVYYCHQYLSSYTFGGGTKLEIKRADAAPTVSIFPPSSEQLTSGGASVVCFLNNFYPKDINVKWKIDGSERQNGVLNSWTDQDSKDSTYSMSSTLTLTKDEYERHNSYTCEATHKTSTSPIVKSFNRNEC
# assay-summary: BLI; 200 mM KCl; BLI: 25 mM Tris-HCl pH 7.5, 2 mM MgCl2, KCl 100 mM (6-20 bp and mutants), 200 mM (30 bp) or 400 mM (40, 50 bp), 25 C; IgG immobilised on Protein A probes
# settings: protein: recombinant;recombinant; tags: His8 (C-term);; chain copies: 2;2
Scale for pKd: -log10 of concentration given in mol/L; no unit attached.

30-bp dsRNA 0% GC (dsRNA) RNA 1: AUUAUAAAUAAUUUAAAUAUUAUAUUAAAU RNA 2: AUUUAAUAUAAUAUUUAAAUUAUUUAUAAU; 6.54

Req: // returns reported pKd for input 30-bp dsRNA 3% GC (dsRNA) RNA 1: AUUAUAAAUAAUUUCAAUAUUAUAUUAAAU RNA 2: AUUUAAUAUAAUAUUGAAAUUAUUUAUAAU
Resp: 6.66
